Origin of measurements: the Immune Epitope Database (IEDB)

- Measurement target: HLA-B*46:01
- Protocol: IEDB peptide-MHC binding, purified MHC/competitive/fluorescence; filed as Kd, often an IC50 or EC50 that approximates it; bounds were set here for any values at or beyond the usual limits of such assays
- Cond: source organism: Yersinia mollaretii ATCC 43969

- Sequence text: "MMWIPGWFG"
  Kd: "≥ 20 µM"

----------
- Measurement target: HLA-A*02:11
- Protocol: IEDB peptide-MHC binding, purified MHC/direct/fluorescence; filed as Kd, often an IC50 or EC50 that approximates it; bounds were set here for any values at or beyond the usual limits of such assays
- Cond: source organism: Rickettsia sibirica 246
pKd: −log10 of the molar value.

- Sequence text: "SVANIDRIK"
  pKd: "≤ 4.70"

----------
- Measurement target: HLA-A*01:01
- Protocol: IEDB peptide-MHC binding, purified MHC/direct/fluorescence; filed as Kd, often an IC50 or EC50 that approximates it; bounds were set here for any values at or beyond the usual limits of such assays
- Cond: source organism: Histophilus somni
Assay metric: Kd

- Sequence text: "QYPAFVLFI"
  Assay metric: "Kd"
  Result: "≥ 20 µM"

----------
- Measurement target: HLA-A*03:01
- Protocol: IEDB peptide-MHC binding, purified MHC/competitive/fluorescence; filed as Kd, often an IC50 or EC50 that approximates it; bounds were set here for any values at or beyond the usual limits of such assays
- Cond: source organism: Cryptosporidium parvum Iowa II

- Sequence text: "VYWENEVSI"
  Kd: "≥ 20 µM"

----------
- Measurement target: HLA-B*57:01
- Protocol: IEDB peptide-MHC binding, purified MHC/direct/fluorescence; filed as Kd, often an IC50 or EC50 that approximates it; bounds were set here for any values at or beyond the usual limits of such assays
- Cond: source organism: Rickettsia typhi
pKd: −log10 of the molar value.

- Sequence text: "ELYPTVNTY"
  Measurement target: "HLA-B*57:01"
  pKd: "≤ 4.70"

----------
- Measurement target: HLA-B*45:01
- Protocol: IEDB peptide-MHC binding, purified MHC/competitive/radioactivity; filed as Kd, often an IC50 or EC50 that approximates it; bounds were set here for any values at or beyond the usual limits of such assays
- Cond: source organism: Mammarenavirus choriomeningitidis
pKd: −log10 of the molar value.
Assay metric: pKd

- Sequence text: "NDSILSHNF"
  Result: "≤ 4.11"

----------
- Measurement target: HLA-B*58:01
- Protocol: IEDB peptide-MHC binding, purified MHC/competitive/radioactivity; filed as Kd, often an IC50 or EC50 that approximates it; bounds were set here for any values at or beyond the usual limits of such assays
- Cond: source organism: Dengue virus 2 Jamaica/1409/1983
pKd: −log10 of the molar value.
Assay metric: pKd

- Sequence text: "LGSQEGAMHT"
  Assay metric: "pKd"
  Quantitative result: 6.26

----------
- Measurement target: HLA-B*58:01
- Protocol: IEDB peptide-MHC binding, purified MHC/direct/fluorescence; filed as Kd, often an IC50 or EC50 that approximates it; bounds were set here for any values at or beyond the usual limits of such assays
- Cond: source organism: Influenza A virus (A/Yilan/515/03(H3N2))
Assay metric: Kd (nM)

- Sequence text: "KSFFSRLNW"
  Quantitative result: 139

----------
- Measurement target: HLA-B*07:02
- Protocol: IEDB peptide-MHC binding, purified MHC/competitive/radioactivity; filed as Kd, often an IC50 or EC50 that approximates it; bounds were set here for any values at or beyond the usual limits of such assays
- Cond: source organism: Triticum aestivum

- Sequence text: "QPQLPYPQPQL"
  Kd: "9.63 µM"

----------
- Measurement target: HLA-B*51:01
- Protocol: IEDB peptide-MHC binding, purified MHC/competitive/radioactivity; filed as Kd, often an IC50 or EC50 that approximates it; bounds were set here for any values at or beyond the usual limits of such assays
- Cond: source organism: Human alphaherpesvirus 2
pKd: −log10 of the molar value.

- Sequence text: "APAWSRRTL"
  Measurement target: "HLA-B*51:01"
  pKd: "≤ 4.23"

----------
- Measurement target: HLA-B*46:01
- Protocol: IEDB peptide-MHC binding, purified MHC/direct/fluorescence; filed as Kd, often an IC50 or EC50 that approximates it; bounds were set here for any values at or beyond the usual limits of such assays
- Cond: source organism: Mycobacterium tuberculosis variant bovis
pKd: −log10 of the molar value.

- Sequence text: "PMQQLTQPL"
  pKd: "≤ 4.70"

----------
- Measurement target: HLA-A*02:01
- Protocol: IEDB peptide-MHC binding, purified MHC/competitive/fluorescence; filed as Kd, often an IC50 or EC50 that approximates it; bounds were set here for any values at or beyond the usual limits of such assays
- Cond: source organism: Influenza A virus (A/Memphis/1/1978(H1N1))
pKd: −log10 of the molar value.
Assay metric: pKd

- Sequence text: "AVDADDSHF"
  Result: "≤ 4.70"

----------
- Measurement target: HLA-A*02:01
- Protocol: IEDB peptide-MHC binding, purified MHC/direct/fluorescence; filed as Kd, often an IC50 or EC50 that approximates it; bounds were set here for any values at or beyond the usual limits of such assays
- Cond: source organism: Marburg virus - Musoke, Kenya, 1980
pKd: −log10 of the molar value.

- Sequence text: "AEALLADGL"
  pKd: "≤ 4.70"

----------
- Measurement target: HLA-B*58:01
- Protocol: IEDB peptide-MHC binding, purified MHC/direct/fluorescence; filed as Kd, often an IC50 or EC50 that approximates it; bounds were set here for any values at or beyond the usual limits of such assays
- Cond: source organism: Rickettsia typhi
Assay metric: Kd

- Sequence text: "APILVVSGI"
  Result: "≥ 20 µM"

----------
- Measurement target: HLA-A*30:02
- Protocol: IEDB peptide-MHC binding, purified MHC/competitive/radioactivity; filed as Kd, often an IC50 or EC50 that approximates it; bounds were set here for any values at or beyond the usual limits of such assays
- Cond: source organism: Dengue virus 4 Philippines/H241/1956
Kd values for the sequences below.
Assay metric: Kd (nM)

- Sequence text: "TTRHRKPTY"
  Measurement target: "HLA-A*30:02"
  Assay metric: "Kd"
  Quantitative result: 658
- Sequence text: "KVASAGISY"
  Measurement target: "HLA-A*30:02"
  Assay metric: "Kd"
  Quantitative result: 40.4
- Sequence text: "PSVEVKLPDY"
  Measurement target: "HLA-A*30:02"
  Assay metric: "Kd"
  Quantitative result: 162

----------
- Measurement target: HLA-B*40:01
- Protocol: IEDB peptide-MHC binding, purified MHC/competitive/radioactivity; filed as Kd, often an IC50 or EC50 that approximates it; bounds were set here for any values at or beyond the usual limits of such assays
- Cond: source organism: Mammarenavirus lassaense
pKd: −log10 of the molar value.

- Sequence text: "IEEIMNIVLI"
  pKd: 5.74

----------
- Measurement target: HLA-A*69:01
- Protocol: IEDB peptide-MHC binding, purified MHC/competitive/fluorescence; filed as Kd, often an IC50 or EC50 that approximates it; bounds were set here for any values at or beyond the usual limits of such assays
- Cond: source organism: Influenza A virus (A/Memphis/1/1978(H1N1))
pKd: −log10 of the molar value.

- Sequence text: "AVDADDSHF"
  pKd: "≤ 4.70"

----------
- Measurement target: HLA-A*02:06
- Protocol: IEDB peptide-MHC binding, purified MHC/competitive/fluorescence; filed as Kd, often an IC50 or EC50 that approximates it; bounds were set here for any values at or beyond the usual limits of such assays
- Cond: source organism: Shigella dysenteriae 1012
Assay metric: Kd (nM)

- Sequence text: "RGRGVAIHR"
  Quantitative result: 569

----------
- Measurement target: HLA-B*15:01
- Protocol: IEDB peptide-MHC binding, purified MHC/direct/fluorescence; filed as Kd, often an IC50 or EC50 that approximates it; bounds were set here for any values at or beyond the usual limits of such assays
- Cond: source organism: Vibrio parahaemolyticus
pKd: −log10 of the molar value.
Assay metric: pKd

- Sequence text: "MSSAMSMMH"
  Measurement target: "HLA-B*15:01"
  Assay metric: "pKd"
  Quantitative result: 5.59

----------
Kd values for the sequences below.
- Measurement target: HLA-A*68:01
- Protocol: IEDB peptide-MHC binding, purified MHC/competitive/radioactivity; filed as Kd, often an IC50 or EC50 that approximates it; bounds were set here for any values at or beyond the usual limits of such assays
- Cond: source organism: Vaccinia virus Copenhagen

- Sequence text: "LILSCIFAFI"
  Kd, nM: 658
- Sequence text: "SLAIKNYYRK"
  Kd, nM: 1770

----------
- Measurement target: HLA-A*31:01
- Protocol: IEDB peptide-MHC binding, purified MHC/direct/fluorescence; filed as Kd, often an IC50 or EC50 that approximates it; bounds were set here for any values at or beyond the usual limits of such assays
- Cond: source organism: Vibrio parahaemolyticus
pKd: −log10 of the molar value.
Assay metric: pKd

- Sequence text: "NSSYWRQGY"
  Measurement target: "HLA-A*31:01"
  Result: "≤ 4.70"
